These entries and their values trace back to ChEMBL document CHEMBL4651402.

assay_protocol: in vitro
study_conditions: chlorocebus sabaeus, Vero E6 (Vero C1008) cells, CC50
Consider the following compounds and their measured CC50 at 48 h readings.

Completed entries (count: 3):
compound	CC50 at 48 h
CN(C)C/C=C(\c1ccc(Br)cc1)c1cccnc1	> 10 µM
CCC(=O)c1ccc2c(c1)N(CCCN1CCN(CCO)CC1)c1ccccc1S2	6.31 µM
CC(=O)NC1(c2ccccc2)CCN(CCC(CN(C)C(=O)c2ccccc2)c2ccc(Cl)c(Cl)c2)CC1 (centres undefined)	23.4 µM

Recorded CC50 at 48 h for CCN(CC)CCOc1ccc(-c2nc3cc(Cl)ccc3s2)cc1 , please?
3.72 µM

Query CC(C)(C)c1ccc(CN2CCN(C(c3ccccc3)c3ccc(Cl)cc3)CC2)cc1 (centres undefined) next
81.3 µM

Again, but for CCOC(=O)C1=C(C)NC(C)=C(C(=O)OCC)C1c1ccccc1/C=C/C(=O)OC(C)(C)C
7.24 µM

###

assay_protocol: in vitro
study_conditions: chlorocebus sabaeus, Vero E6 (Vero C1008) cells, pCC50
readout_label: CC50 at 48 h

molecule	CC50 at 48 h
CC(=O)c1ccc2c(c1)N(CCCN1CCC(CCO)CC1)c1ccccc1S2	12 µM
CN1CCC[C@@H](CN2c3ccccc3Sc3ccccc32)C1	11.7 µM
Cc1ccc(-c2nc3c(nc2-c2ccc(C)cc2)N(CCCCCCC(=O)O)CCC3)cc1	50.1 µM
Cc1ccc(C(=O)Nc2ccc(CN3CCN(C)CC3)c(C(F)(F)F)c2)cc1C#Cc1cnc2cccnn12	0.977 µM
CO[C@H]1CC[C@H](n2c([C@H]3CCCC(=O)N3c3ccc(F)c(F)c3)nc3cc(-c4c(C)noc4C)ccc32)CC1 (relative stereo)	9.12 µM

Requested field: CC50 at 48 h. Item: CN(C)CCCn1cc(-c2ccccc2)c(-c2ccccc2)n1
39.8 µM

And CCn1cc(-c2ccnc3[nH]c(-c4cccc(CN(C)C)c4)cc23)c(-c2ccc(NC(=O)N(C)C)cc2)n1 ?
9.33 µM

// repeat for CCC1(CC)C(=O)NCC(C)C1=O (configuration not stated) and report
> 25.1 µM

Moving on to O=C1NC2CCCCN2C12CCN(CCCN1c3ccccc3CCc3ccc(Cl)cc31)CC2 (configuration not stated)
8.13 µM

Here is the next molecule: O=C(Nc1ccccc1)OCC(CN1CCCCC1)OC(=O)Nc1ccccc1 (configuration not stated)
> 25.1 µM

Entry CC[C@@H]([C@H](C)O)n1ncn(-c2ccc(N3CCN(c4ccc(OC[C@@H]5CO[C@@](Cn6cncn6)(c6ccc(F)cc6F)C5)cc4)CC3)cc2)c1=O please
> 100 µM

Next up: CN(C)CC/C=C1\c2ccccc2OCc2c1oc1ccccc21
12 µM

Now try CC[C@@H]1C(=O)N(C)c2cnc(Nc3ccc(C(=O)N[C@H]4CC[C@H](N5CCN(CC6CC6)CC5)CC4)cc3OC)nc2N1C(C)C .
0.234 µM

Another: Cc1ccccc1CN1CCN(CCOC(c2ccccc2)c2ccccc2Cl)CC1 (configuration not stated)
15.1 µM

Likewise for c1ccc(C(c2ccccc2)N2CCN(CCCC3(c4ccccc4)OCCO3)CC2)cc1 ?
17.4 µM

Further, for c1ccc(C(O[C@H]2CCCN(CCc3ccc4c(c3)OCO4)C2)c2ccccc2)cc1 ?
> 100 µM

Let us now turn to Cc1cc2cc(Oc3ccnc(Nc4cccc(CS(=O)(=O)NCCN(C)C)c4)n3)ccc2[nH]1
4.9 µM
